Test: self-splicing fitness, log relative to wild type (ln ratio); higher = more splicing; Tetrahymena group I intron in knt gene, E. coli kanamycin selection, DiMSum; sequences stand for … in CUCUCU…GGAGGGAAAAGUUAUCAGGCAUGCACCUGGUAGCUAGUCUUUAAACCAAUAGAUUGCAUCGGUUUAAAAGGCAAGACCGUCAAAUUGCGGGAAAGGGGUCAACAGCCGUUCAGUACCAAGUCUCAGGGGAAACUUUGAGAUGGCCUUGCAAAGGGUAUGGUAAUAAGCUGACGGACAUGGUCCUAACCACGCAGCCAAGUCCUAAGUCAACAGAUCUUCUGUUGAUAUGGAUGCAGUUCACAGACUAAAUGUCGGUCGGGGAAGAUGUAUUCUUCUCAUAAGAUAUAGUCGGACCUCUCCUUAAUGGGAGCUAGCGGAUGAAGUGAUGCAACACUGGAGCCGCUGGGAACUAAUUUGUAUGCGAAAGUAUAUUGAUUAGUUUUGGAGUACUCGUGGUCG;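 also: selection with 25 µg/mL kanamycin versus none on LB agar overnight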
Conditions: 37 °C
quantity.name: self-splicing fitness (ln)
// return a plain number; no unit text

[[record]]
residue_string = "CCGAAGCAAUAUUACGCGUC"
quantity_name = "self-splicing fitness (ln)"
assay_value = -3.2


Consider the record given below.
The sequence listed as AAAGAGCAAUAUUACGUUAG shows self-splicing fitness (ln) equal to -3.11

---

Assay: self-splicing fitness, log relative to wild type (ln ratio); higher = more splicing; Tetrahymena group I intron in knt gene, E. coli kanamycin selection, DiMSum; sequences stand for … in CUCUCU…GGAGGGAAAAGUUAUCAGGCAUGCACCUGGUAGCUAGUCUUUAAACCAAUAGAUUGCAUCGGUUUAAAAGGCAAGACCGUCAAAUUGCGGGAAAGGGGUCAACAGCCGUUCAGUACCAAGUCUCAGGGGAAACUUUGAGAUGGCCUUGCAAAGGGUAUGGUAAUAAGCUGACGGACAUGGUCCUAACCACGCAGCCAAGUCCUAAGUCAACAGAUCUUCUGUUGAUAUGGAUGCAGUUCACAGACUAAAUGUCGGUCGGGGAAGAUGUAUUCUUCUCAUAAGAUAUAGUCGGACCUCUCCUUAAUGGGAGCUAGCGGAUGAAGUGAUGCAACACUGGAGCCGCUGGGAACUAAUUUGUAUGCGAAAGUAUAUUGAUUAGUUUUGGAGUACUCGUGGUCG
Conditions: 30 °C
quantity.name: self-splicing fitness (ln)

[[record]]
residue_string = "AAACAGCAAUAUUACGACGA"
assay_value = -1.32

[[record]]
residue_string = "UCACAGCAAUAUUACGCCUG"
assay_value = -1.21

[[record]]
residue_string = "UUGGAGCAAUAUUACGCGCG"
assay_value = -2.3

[[record]]
residue_string = "UGCAAGCAAUAUUACGUAAG"
assay_value = -2.75

[[record]]
residue_string = "AUAAAGCAAUAUUACGACUG"
assay_value = -1.14

[[record]]
residue_string = "UGCCAGCAAUAUUACGUAGC"
assay_value = -3.9

[[record]]
residue_string = "GCAAAGCAAUAUUACGGGCA"
assay_value = -1.3


Attention now shifts to the item below.
self-splicing fitness (ln) measured on UCGAAGCAAUAUUACGCUCG = -2.53

---

Test: self-splicing fitness, log relative to wild type (ln ratio); higher = more splicing; Tetrahymena group I intron in knt gene, E. coli kanamycin selection, DiMSum; sequences stand for … in CUCUCU…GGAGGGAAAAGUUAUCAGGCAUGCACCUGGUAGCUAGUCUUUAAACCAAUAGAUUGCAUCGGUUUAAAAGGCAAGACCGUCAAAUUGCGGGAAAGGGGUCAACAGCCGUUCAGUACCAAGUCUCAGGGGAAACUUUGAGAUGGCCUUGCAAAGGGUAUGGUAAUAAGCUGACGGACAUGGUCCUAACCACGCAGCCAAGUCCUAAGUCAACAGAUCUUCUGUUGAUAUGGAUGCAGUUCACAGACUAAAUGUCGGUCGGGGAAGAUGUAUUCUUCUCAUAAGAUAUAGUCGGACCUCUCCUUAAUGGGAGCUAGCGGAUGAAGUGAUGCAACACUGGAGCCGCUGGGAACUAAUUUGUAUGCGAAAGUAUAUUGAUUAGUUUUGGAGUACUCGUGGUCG
Conditions: 30 °C
quantity.name: self-splicing fitness (ln)

[[record]]
residue_string = "GCACAGCAAUAUUACGGGAC"
assay_value = -1.04

[[record]]
residue_string = "UUUGAGCAAUAUUACGGCUG"
assay_value = -0.955


GGCGAGCAAUAUUACGUGUU has a reported self-splicing fitness (ln) of -2.5

Recorded self-splicing fitness (ln) (sequence CAGCAGCAAUAUUACGCCGU ): -2.74

Just so you know, measured self-splicing fitness (ln) for UAUUAGCAAUAUUACGGAUC came out at -1.65

// self-splicing fitness (ln) value for UCUAAGCAAUAUUACGACAU : -3.44

---

Experiment: self-splicing fitness, log relative to wild type (ln ratio); higher = more splicing; Tetrahymena group I intron in knt gene, E. coli kanamycin selection, DiMSum; sequences stand for … in CUCUCU…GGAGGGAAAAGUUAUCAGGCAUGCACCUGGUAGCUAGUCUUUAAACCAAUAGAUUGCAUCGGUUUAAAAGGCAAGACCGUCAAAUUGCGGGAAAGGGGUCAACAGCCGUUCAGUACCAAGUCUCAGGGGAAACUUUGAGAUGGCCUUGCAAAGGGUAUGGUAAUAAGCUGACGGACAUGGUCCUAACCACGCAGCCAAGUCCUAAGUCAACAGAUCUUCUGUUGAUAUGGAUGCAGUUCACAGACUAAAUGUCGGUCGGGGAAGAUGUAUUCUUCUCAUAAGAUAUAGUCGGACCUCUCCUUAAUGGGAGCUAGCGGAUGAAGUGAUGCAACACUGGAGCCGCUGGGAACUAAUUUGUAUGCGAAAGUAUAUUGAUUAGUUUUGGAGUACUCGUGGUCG
Details: 37 °C
# Lookup of reported self-splicing fitness (ln) keyed by entry
Reply with just the number.

Solved entries (count: 2):
[[record]]
residue_string = "ACUGAGCAAUAUUACGCCUG"
assay_value = -1.48

[[record]]
residue_string = "AGGAAGCAAUAUUACGCCAG"
assay_value = -1.81


Summary for this sequence, CAAGAGCAAUAUUACGCCUU : self-splicing fitness (ln) is -2.57

The sequence GCUAAGCAAUAUUACGUUGG showed self-splicing fitness (ln) equal to -1.79

For reference, reported self-splicing fitness (ln) for UUAUAGCAAUAUUACGGAGG stands at -2.37

Form field self-splicing fitness (ln), entry GACUAGCAAUAUUACGAUCU : -1.38

What the record says about GACCAGCAAUAUUACGGCCG : self-splicing fitness (ln) is 0.158

# self-splicing fitness (ln) (sequence: ACGUAGCAAUAUUACGUACA ) is -0.998

---

Test: self-splicing fitness, log relative to wild type (ln ratio); higher = more splicing; Tetrahymena group I intron in knt gene, E. coli kanamycin selection, DiMSum; sequences stand for … in CUCUCU…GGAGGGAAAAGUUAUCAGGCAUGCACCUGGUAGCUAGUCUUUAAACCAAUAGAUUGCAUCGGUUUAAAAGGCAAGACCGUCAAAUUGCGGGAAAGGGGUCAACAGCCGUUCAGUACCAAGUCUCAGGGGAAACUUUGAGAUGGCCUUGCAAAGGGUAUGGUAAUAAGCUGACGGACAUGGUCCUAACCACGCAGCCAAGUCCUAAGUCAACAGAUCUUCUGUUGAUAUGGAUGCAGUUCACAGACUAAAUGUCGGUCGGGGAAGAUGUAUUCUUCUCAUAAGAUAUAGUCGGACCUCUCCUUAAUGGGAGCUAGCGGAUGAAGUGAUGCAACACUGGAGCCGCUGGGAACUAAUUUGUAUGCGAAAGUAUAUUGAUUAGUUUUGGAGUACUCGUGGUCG
Details: 30 °C
Entries and their self-splicing fitness (ln)
A bare number is all that is needed in reply.

[[record]]
residue_string = "CCGUAGCAAUAUUACGAUGG"
assay_value = -3.58


For ACCCAGCAAUAUUACGAUAA the sequence record lists self-splicing fitness (ln) as -2.15

Reported self-splicing fitness (ln) for CCGAAGCAAUAUUACGCUGC was -2.89

Value of self-splicing fitness (ln) reported for the sequence AUAGAGCAAUAUUACGCGUG is -0.385

# self-splicing fitness (ln) of UACUAGCAAUAUUACGAGUA = -2.36

Note to self: self-splicing fitness (ln) recorded for CGGCAGCAAUAUUACGACGA was -1

Note to self: self-splicing fitness (ln) recorded for CAUAAGCAAUAUUACGCAGG was -1.84

---

Assay: self-splicing fitness, log relative to wild type (ln ratio); higher = more splicing; Tetrahymena group I intron in knt gene, E. coli kanamycin selection, DiMSum; sequences stand for … in CUCUCU…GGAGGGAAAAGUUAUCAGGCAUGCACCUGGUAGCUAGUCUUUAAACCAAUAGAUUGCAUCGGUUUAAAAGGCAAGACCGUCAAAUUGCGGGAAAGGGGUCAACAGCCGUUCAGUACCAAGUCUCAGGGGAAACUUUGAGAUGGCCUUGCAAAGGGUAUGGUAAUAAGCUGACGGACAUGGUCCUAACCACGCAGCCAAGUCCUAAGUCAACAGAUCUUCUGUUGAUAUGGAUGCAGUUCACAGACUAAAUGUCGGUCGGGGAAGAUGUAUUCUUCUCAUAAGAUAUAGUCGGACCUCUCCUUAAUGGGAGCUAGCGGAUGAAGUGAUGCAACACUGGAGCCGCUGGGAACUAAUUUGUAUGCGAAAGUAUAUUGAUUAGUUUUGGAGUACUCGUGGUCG
Details: 37 °C
Use label 1 when the recorded self-splicing fitness (ln) is no lower than -2; use label 0 when it is lower.

[[record]]
residue_string = "CGACAGCAAUAUUACGGCUA"
group_label = "label 1"

[[record]]
residue_string = "AGACAGCAAUAUUACGAACG"
group_label = "label 1"

[[record]]
residue_string = "CUCUAGCAAUAUUACGUGGC"
group_label = "label 0"

[[record]]
residue_string = "GGCGAGCAAUAUUACGAUAC"
group_label = "label 1"


Input line: Reported self-splicing fitness (ln) at or above -2? AAGUAGCAAUAUUACGCUUU
Output line: label 0
